Just for reference, the supplement of paper PMC12667976 is where these values come from.

B1: library; numbered along this chain (parent)
chain: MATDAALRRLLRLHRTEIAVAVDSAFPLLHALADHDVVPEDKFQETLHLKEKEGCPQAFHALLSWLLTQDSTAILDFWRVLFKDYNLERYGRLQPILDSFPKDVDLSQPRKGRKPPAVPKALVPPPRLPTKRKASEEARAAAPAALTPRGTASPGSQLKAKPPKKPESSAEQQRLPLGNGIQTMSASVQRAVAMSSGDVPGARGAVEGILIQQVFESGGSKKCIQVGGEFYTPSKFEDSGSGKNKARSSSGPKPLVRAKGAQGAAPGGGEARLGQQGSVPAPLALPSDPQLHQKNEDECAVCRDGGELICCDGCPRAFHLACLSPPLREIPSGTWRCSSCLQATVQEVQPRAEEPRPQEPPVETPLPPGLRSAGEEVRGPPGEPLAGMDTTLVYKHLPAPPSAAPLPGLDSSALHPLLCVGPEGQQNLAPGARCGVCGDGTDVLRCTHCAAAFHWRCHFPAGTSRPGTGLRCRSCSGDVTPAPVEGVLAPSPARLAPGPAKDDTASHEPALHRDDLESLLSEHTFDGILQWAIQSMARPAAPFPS

- Variants of: B1
- test_summary: AIRE transcriptional activation functional score (insulin promoter-GFP; nonsense median 0, synonymous median 1) (normalised score); higher = higher AIRE activity (more reporter activation)
- condition_info: with insulin promoter-GFP reporter in HEK293
Binary classification by AIRE transcriptional activation functional score, with 0.7 as an inclusive lower bound for 1; all other cases are -1.

Worked examples, 2 variants total:
[
  {
    "mutant_designation": "R513P",
    "answer_label": -1
  },
  {
    "mutant_designation": "S248W",
    "answer_label": 1
  }
]

Request: Is reported AIRE transcriptional activation functional score greater than or equal to 0.7 here: "C337E"
Result: 1

Request: Quick check, AIRE transcriptional activation functional score >= 0.7? "P544Q"
Result: 1

Request: Check if AIRE transcriptional activation functional score >= 0.7 (inclusive). Item: "I528S"
Result: -1

Request: Dear colleague, could you confirm whether "S412R" has AIRE transcriptional activation functional score at or above 0.7?
Result: 1

Request: Hi team, for "L10V" , is the recorded AIRE transcriptional activation functional score at or above 0.7?
Result: -1

Request: Is AIRE transcriptional activation functional score at least 0.7? Consider "Q534H"
Result: 1

Request: Threshold query (AIRE transcriptional activation functional score >= 0.7) on "F525I"
Result: -1

Request: In plain terms: is recorded AIRE transcriptional activation functional score at least 0.7 for "A317Y" ?
Result: -1

Request: AIRE transcriptional activation functional score >= 0.7 for "P542Y" ?
Result: 1

Request: Decide: is the reported value of AIRE transcriptional activation functional score for "A496V" equal to or greater than 0.7?
Result: 1
